# Study target: UniProt Q9H7B4
# Sequence (Q9H7B4 whole entry): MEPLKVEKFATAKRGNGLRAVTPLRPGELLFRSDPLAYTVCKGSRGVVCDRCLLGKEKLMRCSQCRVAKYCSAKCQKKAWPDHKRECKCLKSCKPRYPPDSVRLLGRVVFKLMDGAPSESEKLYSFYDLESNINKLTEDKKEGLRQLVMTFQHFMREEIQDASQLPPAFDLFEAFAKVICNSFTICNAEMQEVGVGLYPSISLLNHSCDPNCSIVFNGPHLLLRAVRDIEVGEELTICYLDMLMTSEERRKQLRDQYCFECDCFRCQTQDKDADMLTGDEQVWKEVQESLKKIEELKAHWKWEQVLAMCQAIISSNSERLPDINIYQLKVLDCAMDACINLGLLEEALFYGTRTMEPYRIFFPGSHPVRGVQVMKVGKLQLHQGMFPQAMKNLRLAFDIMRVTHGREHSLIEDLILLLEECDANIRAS
# Method description: SMYD3 cell assay (Trimethyl-MEKK2 In-Cell Western in 293T/17 cells)
# Format: cell-based
# Conditions used: 293T/17 cells; read-out: SMYD3 Cell IC50 (μM)*
# Protocol: Trimethyl-MEKK2-in-Cell Western Assay MEM/Glutamax medium, Optimem Reduced Serum medium, penicillin-streptomycin, 0.05% trypsin and 1×D-PBS were purchased from Life Technologies, Grand Island, N.Y., USA. […] Plasmids were prepared for delivery to cells by first mixing 1350 μL Opti-MEM with Fugene (81 μL) in a sterile Eppendorf and incubated for five minutes at room temperature (RT). […] Room temperature MEM+10% Tet system FBS was added and cells were mixed gently, and counted using the Vi-cell. […]
Assay readout: IC50 (µM)
One number for each entry, in µM.

Provide reported IC50 for each item, in the same order as listed.
1. C[C@@H]1C[C@H](NC(=O)c2cc(C3CC3)on2)CCN1S(=O)(=O)c1cccc(C#N)c1
2. C[C@H]1C[C@@H](NC(=O)c2cc(C3CC3)on2)CCN1S(=O)(=O)c1ccc(N(C)CCN2CCOCC2)nc1
3. C[C@@H]1C[C@H](NC(=O)c2cc(C3CC3)on2)CCN1S(=O)(=O)c1ccc(NCCN)nc1

Reply:
1: 5.65; 2: 2.61; 3: 3.3

meta.source: patent US10577363B2
